targetOrTestSystem: PDE1C (Homo sapiens, UniProt Q14123)
Sequence (Q14123 whole entry, species assumed): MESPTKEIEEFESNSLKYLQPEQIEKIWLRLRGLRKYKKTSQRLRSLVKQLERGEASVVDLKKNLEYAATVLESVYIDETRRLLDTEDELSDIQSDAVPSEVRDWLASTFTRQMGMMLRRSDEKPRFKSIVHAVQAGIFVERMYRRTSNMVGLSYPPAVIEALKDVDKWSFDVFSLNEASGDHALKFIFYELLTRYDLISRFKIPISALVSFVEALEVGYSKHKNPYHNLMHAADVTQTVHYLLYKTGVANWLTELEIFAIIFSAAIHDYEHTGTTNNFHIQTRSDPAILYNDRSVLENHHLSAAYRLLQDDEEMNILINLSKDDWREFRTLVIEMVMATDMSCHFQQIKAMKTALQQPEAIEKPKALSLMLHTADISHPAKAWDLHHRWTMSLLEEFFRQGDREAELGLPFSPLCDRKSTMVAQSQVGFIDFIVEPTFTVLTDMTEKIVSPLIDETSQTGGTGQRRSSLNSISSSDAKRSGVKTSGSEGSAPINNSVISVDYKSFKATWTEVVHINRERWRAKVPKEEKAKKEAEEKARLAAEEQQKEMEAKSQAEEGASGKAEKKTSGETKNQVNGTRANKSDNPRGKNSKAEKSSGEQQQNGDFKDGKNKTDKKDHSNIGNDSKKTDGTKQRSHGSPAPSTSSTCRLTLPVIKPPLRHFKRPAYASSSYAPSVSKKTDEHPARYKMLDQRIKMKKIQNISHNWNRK
assayExplanation: Selective inhibitory activity assay, PDE1C
Type: biochemical
assayContext: 1 μM; read-out: Inhibition rate (%) of PDE1C
Here the recorded inhibition at 1 µM is given for each entry.
The answer is to be given in %; state only the numeric part.

INSERT INTO results (smilesstring, observed) VALUES
  ('CCCC#Cc1ccc(NC(C)=O)c2c1C(=O)N([C@H](CS(C)(=O)=O)c1ccc(OC)c(OCC)c1)C2=O', 6.8),
  ('CCCCCc1ccc(NC(=O)CCCCl)c2c1C(=O)N([C@H](CS(C)(=O)=O)c1ccc(OC)c(OCC)c1)C2=O', 8.26);

Continue with the compound presented below.
Qu. Can you look up inhibition at 1 µM on PDE1C (Homo sapiens, UniProt Q14123) for CCCCCc1ccc(NC(=O)CF)c2c1C(=O)N([C@H](CS(C)(=O)=O)c1ccc(OC)c(OCC)c1)C2=O ?
Ans. 1.46
